- target-or-test-system: DDR1 (Homo sapiens, UniProt Q08345)
- Construct: purchased Nanosyn (contract screening)
- Sequence (Q08345 19-913): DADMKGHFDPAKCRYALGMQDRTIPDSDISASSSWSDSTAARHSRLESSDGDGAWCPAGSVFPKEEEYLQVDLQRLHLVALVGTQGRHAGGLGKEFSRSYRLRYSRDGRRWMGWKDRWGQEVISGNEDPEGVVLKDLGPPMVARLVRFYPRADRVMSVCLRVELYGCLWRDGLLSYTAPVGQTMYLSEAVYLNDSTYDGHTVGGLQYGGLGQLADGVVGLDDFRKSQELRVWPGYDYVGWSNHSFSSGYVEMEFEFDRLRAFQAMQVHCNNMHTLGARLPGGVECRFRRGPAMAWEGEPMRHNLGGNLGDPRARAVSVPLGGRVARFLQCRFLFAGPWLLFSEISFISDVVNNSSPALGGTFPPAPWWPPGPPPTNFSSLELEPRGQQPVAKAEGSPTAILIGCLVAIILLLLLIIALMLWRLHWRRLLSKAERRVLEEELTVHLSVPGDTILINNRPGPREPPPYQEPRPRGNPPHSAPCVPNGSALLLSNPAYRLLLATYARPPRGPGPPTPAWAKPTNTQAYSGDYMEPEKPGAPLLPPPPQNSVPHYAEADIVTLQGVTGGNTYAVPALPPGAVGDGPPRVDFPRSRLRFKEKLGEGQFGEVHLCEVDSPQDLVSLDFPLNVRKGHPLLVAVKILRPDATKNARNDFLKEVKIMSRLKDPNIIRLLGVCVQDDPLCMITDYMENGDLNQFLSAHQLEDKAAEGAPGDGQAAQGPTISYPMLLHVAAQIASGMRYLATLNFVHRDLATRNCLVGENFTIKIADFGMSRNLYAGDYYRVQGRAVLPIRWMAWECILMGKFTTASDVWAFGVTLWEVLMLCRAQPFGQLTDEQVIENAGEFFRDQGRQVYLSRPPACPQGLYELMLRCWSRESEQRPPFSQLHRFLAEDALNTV
- protocol-description: Kinase panel enzymatic inhibition assay (Nanosyn)
- Format: biochemical
- settings: compound 5 μM; ATP at Km; 30-minute pre-incubation
measurement-type: inhibition at 5 µM

Look at this compound and give its reported inhibition at 5 µM. CNC(=O)c1cc(Oc2ccc(F)c(NC(=O)c3cc([S+](C)[O-])n(-c4ccc(F)cc4)n3)c2)ccn1 (stereo not drawn) [Ex7]
< 79%

Ok, now Cc1ccc(NC(=O)c2cc(S(C)(=O)=O)n(-c3ccc(F)cc3)n2)cc1Nc1ccc2ncn(C)c(=O)c2c1 [Ex4]
< 79%

Ok, now Cc1ccc(NC(=O)c2cc([S+](C)[O-])n(-c3ccc(F)cc3)n2)cc1-c1cc(OCCO)nc(N2CCOCC2)c1 (stereo not drawn) [Ex10]
≥ 95%
